assayInfo: Solid state stability at 25° C./60% RH and 40° C./75% RH for 1 week
Format: physicochemical
assayContext: 40° C./75% RH/Open/1 week
Counter-ions that a name gives are not always drawn.

{"columns": ["compound", "Purity / Area %"],
 "data": [
  ["N#Cc1ccc(COc2cccc(C3CCN(Cc4nc5ccc(C(=O)O)cc5n4Cc4cncs4)CC3)n2)c(F)c1 [Fumarate Type A]", 96.37],
  ["N#Cc1ccc(COc2cccc(C3CCN(Cc4nc5ccc(C(=O)O)cc5n4Cc4cncs4)CC3)n2)c(F)c1 [Freeform Type C]", 96.69],
  ["N#Cc1ccc(COc2cccc(C3CCN(Cc4nc5ccc(C(=O)O)cc5n4Cc4cncs4)CC3)n2)c(F)c1 [Tris salt Type C]", 96.82],
  ["N#Cc1ccc(COc2cccc(C3CCN(Cc4nc5ccc(C(=O)O)cc5n4Cc4cncs4)CC3)n2)c(F)c1 [Potassium salt Type A]", 96.58],
  ["N#Cc1ccc(COc2cccc(C3CCN(Cc4nc5ccc(C(=O)O)cc5n4Cc4cncs4)CC3)n2)c(F)c1 [Meglumine salt Type A]", 96.88]
]}
